# TGT: human GPR8 (human, UniProt P48146 1-333)
# Sequence (P48146 whole entry): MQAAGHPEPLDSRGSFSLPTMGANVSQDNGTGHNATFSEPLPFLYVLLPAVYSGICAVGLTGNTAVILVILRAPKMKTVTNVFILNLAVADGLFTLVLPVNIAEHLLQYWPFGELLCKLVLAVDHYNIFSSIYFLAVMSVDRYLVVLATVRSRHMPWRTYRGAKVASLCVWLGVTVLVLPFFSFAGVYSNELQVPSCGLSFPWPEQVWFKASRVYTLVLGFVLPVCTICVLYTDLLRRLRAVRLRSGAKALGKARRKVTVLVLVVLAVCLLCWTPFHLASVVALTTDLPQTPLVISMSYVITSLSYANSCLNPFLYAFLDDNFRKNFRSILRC
# EXPERIMENT_NOTES: cell-based or functional assay
Where no end group is shown, it is not given here. [ ]: non-standard residue; d: D form. Met(O) = CS(=O)CC[C@H](N)C(=O)O
OBSERVATION_TYPE: GTPγ S binding promoting activity (EC50 nM)
Number in nM, nothing else.

Task: Consider the binder shown here: WYKHVASPRYHTVGRAAGL [human GPR8 ligand (1-19)] What is its recorded GTPγ S binding promoting activity (EC50 nM)?
Result: 1000

Task: Try this binder next: HVASPRYHTVGRAAGLLMGL [human GPR8 ligand (4-23)]
Result: 6700

Task: Try this binder next: XYKHVASPRYHTVGRAAGLLMGL (N-terminal Fmoc (N-9-fluorenylmethoxycarbonyl) on Trp1) [Fmoc-human GPR8 ligand (1-23)]
Result: 240

Task: Try this binder next: {3‑indolepropanoyl}-YKHVASPRYHTVGRAAGLLMGL [[N-3-Indolepropanyl-Tyr2]-human GPR8 ligand (2-23)]
Result: 5

Task: Try this binder next: Ac-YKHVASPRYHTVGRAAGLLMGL [[N-Acetyl-Tyr2]-human GPR8 ligand (2-23)]
Result: 7200

Task: Try this binder next: WYKHTASPRYHTVGRAAGLL[Met(O)]GL [oxidized porcine GPR8 ligand (1-23)]
Result: 0.73
